Assay: NCI Yeast Anticancer Drug Screen. Data for the cln2 rad14 strain (AID 165);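 further: 0% = growth equal to vehicle treated cultures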
Details: S. cerevisiae cln2 rad14 strain, at 50.0 µM, stronger effect = higher value
This is part of a sample that, as a whole, favours compounds with a hit. Of some 79,000 tested, about 15% had one in any assay.
Let's look at some compounds and their measured growth inhibition.
Supply the numeric figure in %, leaving out any unit text.

Request: Recorded growth inhibition for "CCN(CC)CCN(C)CCN(CC)CC" , please?
Result: 9.8

Request: Recorded growth inhibition for "CC(=O)Nc1ccccc1OC(=O)c1ccccc1" , please?
Result: 11.9

Request: Recorded growth inhibition for "Clc1nc(Cl)c2ncnc(Cl)c2n1" , please?
Result: -11.4

Request: Recorded growth inhibition for COC(=O)C1(CC(=O)Cc2ccccc2)NC(=S)NC(=O)C1C#N (configuration not stated) , please?
Result: -12.1

Request: Recorded growth inhibition for "c1ccc2c(c1)nc1n2CC2(CS1)CSc1nc3ccccc3n1C2" , please?
Result: -25.8

Request: Recorded growth inhibition for "C=C[C+](CCCC)C(=O)[O-]" , please?
Result: -19.8

Request: Recorded growth inhibition for C=C1[C@H](OCC(C)C)[C@@H](OC(=O)C(C)CC)[C@@H](O)C(C)(C)/C=C/[C@H](C)C(=O)[C@@]2(O)C[C@H](C)[C@H](O)[C@@H]2[C@H]1OC(=O)C(C)CC (some centres not stated) , please?
Result: 69.3
